Cited source for all entries: BigSolDB 2.1

condition-summary: in methyl acetate, 303.15 K
measure-name: solubility (mole fraction)
Answers are plain numbers.

Request the reported solubility (mole fraction) associated with `Nc1cc(Cl)ccc1[N+](=O)[O-]` 0.147

* * *

condition-summary: in methanol, 318.15 K
measure-name: solubility (mole fraction)
Numbers only.

Request the reported solubility (mole fraction) associated with `Nc1cc(Cl)ccc1[N+](=O)[O-]` 0.0326

* * *

condition-summary: in acetonitrile, 323.15 K
measure-name: solubility (mole fraction)
Give bare numbers.

Request the reported solubility (mole fraction) associated with `Nc1cc(Cl)ccc1[N+](=O)[O-]` 0.135

* * *

condition-summary: in water, 283.15 K
measure-name: solubility (mole fraction)
One number for each entry.

Request the reported solubility (mole fraction) associated with `Nc1cc(Cl)ccc1[N+](=O)[O-]` 5.45e-06
